- TEST_DETAILS: Cytotoxicity against human A253 cells after 96 hrs by SRB assay
- Format: functional, cell-based
- RUN_PARAMETERS: Homo sapiens, A253, 96 h
ENDPOINT_NAME: IC50 (µM)
Numbers only here, please. The scale is µM.

Illustrative cases are given below, each with its answer.
smiles_code=COC(=O)[C@@]1(C)CC[C@]2(C)CC[C@]3(C)C(=CC(=O)[C@@H]4[C@@]5(C)CC[C@H](OC(=O)[C@@H](C)N)C(C)(C)[C@@H]5CC[C@]43C)[C@@H]2C1 endpoint_name=IC50 test_result=2.26
smiles_code=C[C@H](N)C(=O)O[C@H]1CC[C@]2(C)[C@H]3C(=O)C=C4[C@@H]5C[C@@](C)(C(=O)OCc6ccccc6)CC[C@]5(C)CC[C@@]4(C)[C@]3(C)CC[C@H]2C1(C)C endpoint_name=IC50 test_result=3.49
smiles_code=CCOC(=O)[C@@]1(C)CC[C@]2(C)CC[C@]3(C)C(=CC(=O)[C@@H]4[C@@]5(C)CC[C@H](OC(=O)CN)C(C)(C)[C@@H]5CC[C@]43C)[C@@H]2C1 endpoint_name=IC50 test_result=3.59
smiles_code=COC(=O)[C@@]1(C)CC[C@]2(C)CC[C@]3(C)C(=CC(=O)[C@@H]4[C@@]5(C)CC[C@H](O)C(C)(C)[C@@H]5CC[C@]43C)[C@@H]2C1 endpoint_name=IC50 test_result=19.4

Let us move to another entry and its IC50.
Record CC(C)OC(=O)[C@@]1(C)CC[C@]2(C)CC[C@]3(C)C(=CC(=O)[C@@H]4[C@@]5(C)CC[C@H](OC(=O)[C@H](C)N)C(C)(C)[C@@H]5CC[C@]43C)[C@@H]2C1 . Reported IC50: 3.51

====

- TEST_DETAILS: Cytotoxicity against human A253 cells after 96 hrs by SRB assay
- Assay type: functional, cell-based
- RUN_PARAMETERS: Homo sapiens, A253, 96 h
Readings of pIC50 for the listed compounds
Here pIC50 is given on a logarithmic scale as minus log10 of the concentration in mol/L.

Illustrative cases are given below, each with its answer.
smiles_code=CC(C)OC(=O)[C@@]1(C)CC[C@]2(C)CC[C@]3(C)C(=CC(=O)[C@@H]4[C@@]5(C)CC[C@H](OC(=O)CCN)C(C)(C)[C@@H]5CC[C@]43C)[C@@H]2C1 test_result=5.57
smiles_code=CC1(C)[C@@H](OC(=O)CCN)CC[C@]2(C)[C@H]3C(=O)C=C4[C@@H]5C[C@@](C)(C(=O)OCc6ccccc6)CC[C@]5(C)CC[C@@]4(C)[C@]3(C)CC[C@@H]12 test_result=5.52
smiles_code=CC1(C)[C@@H](OC(=O)CN)CC[C@]2(C)[C@H]3C(=O)C=C4[C@@H]5C[C@@](C)(C(=O)OCc6ccccc6)CC[C@]5(C)CC[C@@]4(C)[C@]3(C)CC[C@@H]12 test_result=5.30
smiles_code=CC(C)OC(=O)[C@@]1(C)CC[C@]2(C)CC[C@]3(C)C(=CC(=O)[C@@H]4[C@@]5(C)CC[C@H](OC(=O)[C@@H](C)N)C(C)(C)[C@@H]5CC[C@]43C)[C@@H]2C1 test_result=5.46
smiles_code=CCOC(=O)[C@@]1(C)CC[C@]2(C)CC[C@]3(C)C(=CC(=O)[C@@H]4[C@@]5(C)CC[C@H](OC(=O)[C@H](C)N)C(C)(C)[C@@H]5CC[C@]43C)[C@@H]2C1 test_result=5.63
smiles_code=CCOC(=O)[C@@]1(C)CC[C@]2(C)CC[C@]3(C)C(=CC(=O)[C@@H]4[C@@]5(C)CC[C@H](OC(=O)[C@@H](C)N)C(C)(C)[C@@H]5CC[C@]43C)[C@@H]2C1 test_result=5.59
smiles_code=COC(=O)[C@@]1(C)CC[C@]2(C)CC[C@]3(C)C(=CC(=O)[C@@H]4[C@@]5(C)CC[C@H](OC(=O)CN)C(C)(C)[C@@H]5CC[C@]43C)[C@@H]2C1 test_result=5.20
smiles_code=CC1(C)[C@@H](O)CC[C@]2(C)[C@H]3C(=O)C=C4[C@@H]5C[C@@](C)(C(=O)OCc6ccccc6)CC[C@]5(C)CC[C@@]4(C)[C@]3(C)CC[C@@H]12 test_result=4.97

Let us move to another entry and its pIC50.
Record COC(=O)[C@@]1(C)CC[C@]2(C)CC[C@]3(C)C(=CC(=O)[C@@H]4[C@@]5(C)CC[C@H](OC(=O)CCN)C(C)(C)[C@@H]5CC[C@]43C)[C@@H]2C1 . Reported pIC50: 5.60
